Values from the RNAGym collection of RNA variant scans (doi:10.7554/elife.90254)

B1: LINE1-full (parent)
chain: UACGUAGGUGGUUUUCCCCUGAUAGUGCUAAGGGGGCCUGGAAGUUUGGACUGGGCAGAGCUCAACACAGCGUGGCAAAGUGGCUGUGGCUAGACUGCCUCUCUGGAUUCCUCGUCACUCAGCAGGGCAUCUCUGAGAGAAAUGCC

- Variants of: B1
- method summary: self-cleavage, relative activity (ratio to wild type); higher = more cleavage; in vitro, sequencing; the parent is a self-cleaving ribozyme
property: self-cleavage
Give your answer as a number; write no unit.

U12C C28U
0.74
A67G A117U
0.53
G58U U100C
0.09

Ask: Using the record for A64G A65G , report its self-cleavage.
Result: 0.11

Ask: For U73A A138U , what is its reported self-cleavage?
Result: 1.72

Ask: Give the measured self-cleavage of U13C G21A .
Result: 0.94

Ask: Please report the recorded self-cleavage for U13A U26C .
Result: 1.19

Ask: Field request: self-cleavage | item: U20C A30G
Result: 1.39
